Provide the recorded log10 IC50 for the entries that follow.
Molecular target: DP receptor (Homo sapiens, UniProt Q13258)
Construct: the human cell line LS174T, which expresses the endogenous DP receptor; endogenous in cells
Sequence (Q13258 1-359): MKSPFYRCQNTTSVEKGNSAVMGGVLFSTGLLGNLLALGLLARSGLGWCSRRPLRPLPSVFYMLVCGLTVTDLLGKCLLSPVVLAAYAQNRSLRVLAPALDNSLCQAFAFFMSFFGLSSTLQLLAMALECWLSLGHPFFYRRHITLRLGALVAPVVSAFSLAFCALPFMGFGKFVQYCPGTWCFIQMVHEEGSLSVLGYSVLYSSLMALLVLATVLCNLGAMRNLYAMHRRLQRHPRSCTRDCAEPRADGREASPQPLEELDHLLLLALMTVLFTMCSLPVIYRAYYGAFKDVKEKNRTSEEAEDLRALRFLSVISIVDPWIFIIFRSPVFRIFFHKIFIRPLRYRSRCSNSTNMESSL
Test: SPA cAMP assay in human LS174 T cells (human DP functional assay)
Conditions: inhibition of PGD2 (15 nM final) stimulated cAMP, LS174T cells expressing endogenous DP receptor
Where a name gives a salt, the structure may show the parent alone.
Scale: decimal log of IC50, IC50 in nM.

Problem: log10 IC50 lookup needed for COc1nc(NCCc2ccc(Cl)cc2Cl)cc(-c2cccc(C(C)(C)C(=O)N3CCOCC3)c2)n1 , thanks.
Result: 2.45

Problem: log10 IC50 lookup needed for COc1nc(NCC(F)(F)c2ccccc2)cc(-c2cccc(C(C)(C)C(=O)O)c2)n1 , thanks.
Result: 1.58

Problem: log10 IC50 lookup needed for COc1ccc(C[C@H](Nc2cc(-c3cccc(OC)c3)nc(OC)n2)C(=O)O)cc1 , thanks.
Result: 2.74

Problem: log10 IC50 lookup needed for COc1nc(NCCc2ccc(Cl)cc2Cl)cc(-c2ccc(Cl)c(C(C)(C)O)c2)n1 , thanks.
Result: 2.04

Problem: log10 IC50 lookup needed for COc1ccc(CCNc2cc(-c3ccsc3/C=N/O)nc(OC)n2)cc1 , thanks.
Result: -0.40

Problem: log10 IC50 lookup needed for COc1ccc(CCNc2cc(-c3ccc(N4CCOCC4)cc3)nc(OC)n2)cc1 , thanks.
Result: 1.11

Problem: log10 IC50 lookup needed for COc1nc(NCCc2c(F)cccc2Cl)cc(-c2cccc(CO)c2)n1 , thanks.
Result: 0.38

Problem: log10 IC50 lookup needed for COc1cccc(-c2cc(NCCCc3ccccc3)nc(OC)n2)c1 [Example 43(l), hydrochloride] , thanks.
Result: 3.23

Hello, the source for this data is patent US7517889B2, in case you need it.
